system: MRS USA 300; assay: IC50, MIC and MBC against MRS USA 300; assay type: cell-based, Staphylococcus aureus; conditions: MRS USA 300; tested Conc. in μg/mL
ATTRIBUTE_MEASURED: MIC
Reply: number alone, nothing else.

CCCCCc1cc(O)c2c(c1)OC(C)(C)c1ccc(C)cc1-2 [CNB, Cannabinol] = 2.5
CCCCCc1cc(O)c2c(c1)OC(C)(C)[C@@H]1CC=C(C)C[C@@H]21 [Δ8-Tetrahydrocannabinol] = 5
CCCCCc1cc(O)c2c(c1)OC(C)(C)c1cc(O)c(C)cc1-2 [8-Hydroxycannabinol] = 5

Per the records, this compound ( CCCCCc1cc(O)c(C/C=C(\C)CCC2OC2(C)C)c(O)c1 (centres unmarked) [6,7-Epoxycannabigerol] ) has MIC equal to 20

Per the records, this compound ( CC(C)=CCC/C(C)=C\Cc1c(O)cc(C)cc1O [(Z)-Cannabigerorcin] ) has MIC equal to 16.67

Per the records, this compound ( CCCCCc1cc(O)c(CCC(C)CCCC(C)C)c(O)c1 (centres unmarked) [Tetrahydro CBG, Tetrahydrocannabigerol] ) has MIC equal to 2.08

Per the records, this compound ( C=C(C)[C@@H]1CCC(C)=C[C@H]1c1c(O)cc(CCCCC)c(C(=O)O)c1O [Cannabidiolic acid] ) has MIC equal to 20

Per the records, this compound ( C/C(=C\C(=O)OCCCCCCCCC(=O)O)C[C@@H]1OC[C@H](C[C@@H]2O[C@H]2[C@@H](C)[C@H](C)O)[C@@H](O)[C@H]1O [Mupirocin, reference compound] ) has MIC equal to 0.23

Per the records, this compound ( CC(C)=CCCC1(C)C=Cc2c(O)cc(C)cc2O1 (centres unmarked) [Cannabichromeorcin] ) has MIC equal to 10

Per the records, this compound ( CCCCCc1cc(O)c(C/C=C(\C)CCC=C(C)C)c(O)c1 [CBG, Cannabigerol] ) has MIC equal to 1.67

Per the records, this compound ( CCCCCc1cc(O)c(C/C=C(\C)CCC=C(C)C)c(O)c1C(=O)O [Cannabigerolic acid] ) has MIC equal to 8.33

Per the records, this compound ( O=C(O)c1cn(C2CC2)c2cc(N3CCNCC3)c(F)cc2c1=O [Ciprofloxacin, reference compound] ) has MIC equal to 0.5

Per the records, this compound ( C=C(C)[C@@H]1CC[C@](C)(O)[C@H]2Oc3cc(CCCCC)cc(O)c3[C@@H]12 [Cannabielsoin] ) has MIC equal to 10

Per the records, this compound ( C=C(C)[C@@H]1CCC(C)=C[C@H]1c1c(O)cc(CCCCC)cc1O [CBD, Cannabidiol] ) has MIC equal to 1.67

---

system: MRS 1708 (Mupirocin-resistant); experiment: IC50, MIC and MBC against MRS 1708 (Mupirocin-resistant); type: cell-based, Staphylococcus aureus; conditions: MRS 1708 (Mupirocin-resistant); read-out: IC50
ATTRIBUTE_MEASURED: IC50 (nM)
Kindly provide the numeric value in nM only, without the unit symbol.

Per the records, this compound ( CCCCCc1cc(O)c(CCC(C)CCCC(C)C)c(O)c1 (stereo not shown) [Tetrahydro CBG, Tetrahydrocannabigerol] ) has IC50 equal to 2590

---

system: MRS USA 300; test: IC50, MIC and MBC against MRS USA 300; format: cell-based, Staphylococcus aureus; details: Staphylococcus aureus, USA300
ATTRIBUTE_MEASURED: MBC (µM)
Kindly provide the numeric value in µM only, without the unit symbol.

Worked cases, MBC given:
CCCCCc1cc(O)c2c(c1)OC(C)(C)c1ccc(C)cc1-2 [CNB, Cannabinol] = 10.7
C=C(C)[C@@H]1CCC(C)=C[C@H]1c1c(O)cc(CCCCC)cc1O [CBD, Cannabidiol] = 10.6

Per the records, this compound ( C/C(=C\C(=O)OCCCCCCCCC(=O)O)C[C@@H]1OC[C@H](C[C@@H]2O[C@H]2[C@@H](C)[C@H](C)O)[C@@H](O)[C@H]1O [Mupirocin, reference compound] ) has MBC equal to 3.76

Values were extracted from patent US20210315837A1.
